// data source = patent US20230101266A1

- SYSTEM: T1, recombinant extracellular domain of human TROP2 (human, UniProt P09758 27-274)
- T1 construct: extracellular domain; Commercial protein (Acrobiosystem), used as the analyte in SPR; also called Trophoblast antigen 2; GA733-1
- T1 sequence (looked up): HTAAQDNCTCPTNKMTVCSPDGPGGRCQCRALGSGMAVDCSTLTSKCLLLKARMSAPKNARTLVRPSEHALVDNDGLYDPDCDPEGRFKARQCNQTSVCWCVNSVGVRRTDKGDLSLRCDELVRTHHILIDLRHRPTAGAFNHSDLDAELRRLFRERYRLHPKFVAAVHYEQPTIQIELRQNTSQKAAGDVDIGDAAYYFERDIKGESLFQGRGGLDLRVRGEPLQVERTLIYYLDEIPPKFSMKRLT
- PROCEDURE DETAILS: SPR, Biacore 8K, antibody captured on Protein A chip, TROP2 ECD as analyte, 25 C, 1:1 model
PROPERTY LABEL: koff (s⁻¹)

[[record]]
binder = "Ab0061 (antibody, human IgG1, kappa, V domains shown, Humanized IgG; also called Ab0001-huV5-VL / Ab0001-huV5-VH) VH: QVQLVQSGAEVKKPGSSVKVSCKASGYRFTDYVINWVRQAPGQGLEWMGQIYPGSDTFHYNQKFQGRATLTADKSTNTAYMELSSLRSEDTAVYYCARFFEGLAYWGQGTLVTVSS VL: DIQMTQSPSSLSASVGDRVTITCKASQGINNYLSWYQQKPGKAPKSLIYRANRLVDGVPSRFSGSGSGTDFTLTISSLQPEDFATYYCLQYDEFPLTFGGGTKVEIKR"
property_label = "koff"
obs_value = 0.000545

[[record]]
binder = "Ab0063 (antibody, human IgG1, kappa, V domains shown, Humanized IgG; also called Ab0001-huV8-VL / Ab0001-huV4-VH) VH: QVQLVQSGAEVKKPGSSVKVSCKASGYRFTDYVINWVRQAPGQGLEWMGQIYPGSDSFHYNQKFQGRATLTADKSTNTAYMELSSLRSEDTAVYYCARFFEGLAYWGQGTLVTVSS VL: DIQMTQSPSSLSASVGDRVTITCKASQGINNYLSWYQQKPGKAPKSLIYRANRLVSGVPSRFSGSGSGTDFTLTISSLQPEDFATYYCLQYDEFPLTFGGGTKVEIKR"
property_label = "koff"
obs_value = 0.000394

[[record]]
binder = "Ab0064 (antibody, human IgG1, kappa, V domains shown, Humanized IgG; also called Ab0001-huV8-VL / Ab0001-huV5-VH) VH: QVQLVQSGAEVKKPGSSVKVSCKASGYRFTDYVINWVRQAPGQGLEWMGQIYPGSDTFHYNQKFQGRATLTADKSTNTAYMELSSLRSEDTAVYYCARFFEGLAYWGQGTLVTVSS VL: DIQMTQSPSSLSASVGDRVTITCKASQGINNYLSWYQQKPGKAPKSLIYRANRLVSGVPSRFSGSGSGTDFTLTISSLQPEDFATYYCLQYDEFPLTFGGGTKVEIKR"
property_label = "koff"
obs_value = 0.000547

[[record]]
binder = "Ab0053 (antibody, human IgG1, kappa, V domains shown, Humanized IgG; also called Ab0001-huV4-VL / Ab0001-huV4-VH) VH: QVQLVQSGAEVKKPGSSVKVSCKASGYRFTDYVINWVRQAPGQGLEWMGQIYPGSDSFHYNQKFQGRATLTADKSTNTAYMELSSLRSEDTAVYYCARFFEGLAYWGQGTLVTVSS VL: DIQMTQSPSSLSASVGDRVTITCKASQGINNYLSWYQQKPGKAPKSLIYRANRLVDGVPSRFSGSGSGTDYTLTISSLQPEDFATYYCLQYDEFPLTFGGGTKVEIKR"
property_label = "koff"
obs_value = 0.000326

[[record]]
binder = "Ab0062 (antibody, human IgG1, kappa, V domains shown, Humanized IgG; also called Ab062; Ab0001-huV5-VL / Ab0001-huV6-VH) VH: QVQLVQSGAEVKKPGSSVKVSCKASGYRFTDYVINWVRQAPGQGLEWMGQIYPGSDAFHYNQKFQGRATLTADKSTNTAYMELSSLRSEDTAVYYCARFFEGLAYWGQGTLVTVSS VL: DIQMTQSPSSLSASVGDRVTITCKASQGINNYLSWYQQKPGKAPKSLIYRANRLVDGVPSRFSGSGSGTDFTLTISSLQPEDFATYYCLQYDEFPLTFGGGTKVEIKR"
property_label = "koff"
obs_value = 0.000719

[[record]]
binder = "Ab0054 (antibody, human IgG1, kappa, V domains shown, Humanized IgG; also called Ab0001-huV5-VL / Ab0001-huV4-VH) VH: QVQLVQSGAEVKKPGSSVKVSCKASGYRFTDYVINWVRQAPGQGLEWMGQIYPGSDSFHYNQKFQGRATLTADKSTNTAYMELSSLRSEDTAVYYCARFFEGLAYWGQGTLVTVSS VL: DIQMTQSPSSLSASVGDRVTITCKASQGINNYLSWYQQKPGKAPKSLIYRANRLVDGVPSRFSGSGSGTDFTLTISSLQPEDFATYYCLQYDEFPLTFGGGTKVEIKR"
property_label = "koff"
obs_value = 0.000416

[[record]]
binder = "Ab0052 (antibody, human IgG1, kappa, V domains shown, Humanized IgG; also called Ab0001-huV3-VL / Ab0001-huV4-VH) VH: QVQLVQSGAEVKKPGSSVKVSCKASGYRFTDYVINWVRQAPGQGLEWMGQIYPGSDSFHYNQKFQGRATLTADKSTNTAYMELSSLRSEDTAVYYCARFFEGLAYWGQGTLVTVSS VL: DIQMTQSPSSLSASVGDRVTITCKASQGINNYLSWYQQKPGKAPKSLIYRANRLVDGVPSRFSGSGSGQDYTLTISSLQPEDFATYYCLQYDEFPLTFGGGTKVEIKR"
property_label = "koff"
obs_value = 0.000321

